src = ChEMBL document CHEMBL5252563

Provide the recorded AUC for the entries that follow.
# Assay procedure: AUC in rat at 1 umol/kg, iv administered as cassette dose
# Format: ADME, organism-based
# Design: dose 1 µmol/kg, route iv
# Experimental parameters: in vivo
Answers are plain numbers, in µM·h.

                                smiles_repr  measure_name  reported_value
0  O=C(O)c1cn2c(c(O)c1=O)C(=O)N(CC1CC1)CN2C1c2ccccc2CCc2ccccc21           AUC            1.47

Next up:
So what's the measured AUC for this one? CC(C)N1CN(C2c3ccccc3CCc3ccccc32)n2cc(C(=O)O)c(=O)c(O)c2C1=O 0.928
